- procedureSummary: Half-life in Non human primate at 2.0 mg/kg, po or 0.5 mg/kg, iv
- Type: ADME, organism-based
- conditionNotes: primates, in vivo
reportedProperty: half-life (h)
One number for each entry, in h.

What value of half-life has been recorded for this entry: Cc1cc(-c2nc3c(F)c(-c4cccc5ccc(F)cc45)c(CCC#N)cc3c3c2cc(CN2CCOCC2=O)n3[C@H]2[C@H]3CN[C@@H]2C3)ccn1
8.4

* * *

- procedureSummary: Oral bioavailability in Sprague-Dawley rat at 3 mg/kg measured after 24 hrs by LC-MS/MS analysis
- Type: ADME, organism-based
- conditionNotes: in vivo
For each of the compounds below, state its bioavailability.
One number for each entry, in %.

Cc1cc(-c2nc3c(F)c(-c4cccc5ccc(F)cc45)c(CCC#N)cc3c3c2cc(CN2CCOCC2=O)n3[C@H]2[C@H]3CN[C@@H]2C3)ccn1: 11
Cc1cnc(-c2nc3c(F)c(-c4cccc(Cl)c4C)c(CCC#N)cc3c3c2cc([C@@H](C)N2CCOCC2=O)n3[C@H]2[C@H]3CN[C@@H]2C3)cn1: 27

What value of bioavailability has been recorded for this entry: Cc1cnc(-c2nc3c(F)c(-c4cccc5ccc(F)cc45)c(CCC#N)cc3c3c2cc([C@@H](C)N2CCOCC2=O)n3[C@H]2[C@H]3CN[C@@H]2C3)cn1
20

These entries and their values trace back to ChEMBL document CHEMBL6087482.
